Let's look at some compounds and their measured T/C.
Tested on: P388 leukemia ip, CD2F1 mice, survival T/C
TEST_DETAILS: NCI In Vivo Anticancer Drug Screen. Data for tumor model P388 Leukemia (intraperitoneal) in CD2F1 (CDF1) mice
ASSAY_CONTEXT: endpoint: median survival time; dose: 6.25 mg/kg/injection; schedule: Q01DX005 (ip); vehicle: Klucel (hydroxypropylcellulose) (HPC); higher = longer survival
Description: The antitumor activity of compounds was measured in mice bearing transplantable tumors. Survival or tumor size were measured and the results are expressed as the measurement made in the treated group (T) divided by the measurement made in the vehicle treated control group (C). The tumor model used in this assay is P388 Leukemia (intraperitoneal) in CD2F1 (CDF1) mice
Inconclusive results and toxic doses are left out.

Recorded results for 3 compounds are shown here.
query: Tell us which T/C value is on record for CCCCN(CCCC)C(=N)c1ccccc1Cl
result: 103 % of control

query: Consider the compound Cc1cccc(-n2c(C)nc3c(c(C)c(C)n3-c3ccccc3)c2=N)c1 . State its measured T/C.
result: 97 % of control

query: Answer with the recorded T/C of Cc1c[nH]c2nc(C)n(-c3ccc(F)cc3)c(=N)c12 only.
result: 100 % of control

New cases:
query: Tell me measured T/C for CC(=O)CCC(=O)c1ccoc1 please.
result: 103 % of control

query: Write down T/C measured for item COc1cccc(/C=N/Nc2cc(C)nc3cc4c(cc23)OCO4)c1
result: 104 % of control

query: Specify reported T/C for the compound shown: CC1(C)CCC2(C(=O)OC3OC(CO)C(O)C(O)C3O)CCC3(C)C(=CCC4C5(C)CCC(OC6OC(CO)C(O)C(OC7OC(CO)C(O)C(O)C7O)C6O)C(C)(C)C5CCC43C)C2C1 (centres undefined)
result: 102 % of control

query: Input Cc1ncc([N+](=O)[O-])n1CCOc1c(Cl)cc(Cl)cc1CN(C)C1CCCCC1 , output reported T/C.
result: 98 % of control

query: Name the recorded T/C of the compound listed here: COc1cc([N+](=O)[O-])c(OC)c2c(=O)[nH]c(=O)[nH]c12
result: 98 % of control

query: Find the measured T/C of C#CC(C)C(C(C)=O)C(C)=O.[C-]#[O+].[C-]#[O+].[C-]#[O+].[C-]#[O+].[C-]#[O+].[C-]#[O+].[Co].[Co] (centres undefined) and report it.
result: 94 % of control
